Source: paper PMC6969517

molecular target: ShkA (Caulobacter vibrioides, UniProt Q9ABT2)
Sequence (Q9ABT2 1-514): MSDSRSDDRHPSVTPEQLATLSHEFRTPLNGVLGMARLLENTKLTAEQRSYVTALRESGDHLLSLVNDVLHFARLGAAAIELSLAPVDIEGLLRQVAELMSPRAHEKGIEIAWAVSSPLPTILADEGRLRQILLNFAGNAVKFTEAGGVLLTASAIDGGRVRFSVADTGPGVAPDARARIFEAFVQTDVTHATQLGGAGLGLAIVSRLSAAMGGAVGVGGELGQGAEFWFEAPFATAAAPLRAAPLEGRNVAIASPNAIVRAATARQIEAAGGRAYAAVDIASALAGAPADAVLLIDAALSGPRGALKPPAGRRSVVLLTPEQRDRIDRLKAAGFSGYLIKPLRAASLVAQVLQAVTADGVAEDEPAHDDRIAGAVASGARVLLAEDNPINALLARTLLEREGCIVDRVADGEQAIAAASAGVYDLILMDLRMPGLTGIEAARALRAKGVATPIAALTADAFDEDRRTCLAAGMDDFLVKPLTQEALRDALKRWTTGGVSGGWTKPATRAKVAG
measuredMetric: Ki

>>> valueobserved("Nc1ncnc2c1ncn2[C@@H]1O[C@H](COP(=O)(O)OP(=O)(O)O)[C@@H](O)[C@H]1O [ADP]")
"~60 µM"
